These measurements were taken from ChEMBL document CHEMBL1201862.

Measurement record for Cytochrome P450 1A2 (Homo sapiens, UniProt P05177); quantity recorded: AC50.

Solved cases below.
Cc1nc(NC(=O)c2ccccc2)sc1-c1csc(Nc2ccc(F)cc2)n1 = 4.47 µM (inconclusive)
COc1cc2c(cc1OC)C(c1ccc(N)cc1)=NNC(=O)C2 = 39.8 µM (inconclusive)
COc1ccc(CNC(=O)/C=C\c2ccc3[nH]cc(CCN(C)C)c3c2)cc1 = 39.8 µM (inconclusive)
CC1=C(C(N)=O)C(c2ccccn2)n2nc(SCc3ccccc3Cl)nc2N1 (centres undefined) = 15.8 µM (inconclusive)
CC(C)Cc1nc(N2CCN(C(=O)c3ccccc3)CC2)c(C#N)c2c1CCC2 = 25.1 µM (inconclusive)

Short answer please: AC50, Cytochrome P450 1A2 (Homo sapiens, UniProt P05177), entry CCn1c(SCC(=O)c2ccc(OC)cc2)nnc1C1CC1 17.8 µM (inconclusive)

Give Cytochrome P450 1A2 (Homo sapiens, UniProt P05177) AC50 for CC(=O)N1CCC2(CC1)CC(=O)c1cc(OCC(=O)N3CCN(C)CC3)ccc1O2 39.8 µM (inconclusive)

Lookup: AC50 / Cytochrome P450 1A2 (Homo sapiens, UniProt P05177) / COc1ccc(C(=O)N2CCC[C@@]3(CCN(C(=O)NC(C)C)C3)C2)cc1 12.6 µM (inconclusive)

Observed AC50 on Cytochrome P450 1A2 (Homo sapiens, UniProt P05177) for Cc1cc(Cl)nc(NC(=O)CSc2ccc(Cl)cc2)n1 , please. 5.01 µM (inconclusive)

----------
Hi! I'm sharing some AC50 results obtained with Cytochrome P450 2C9 (Homo sapiens, UniProt P11712).
Sequence (P11712 whole entry): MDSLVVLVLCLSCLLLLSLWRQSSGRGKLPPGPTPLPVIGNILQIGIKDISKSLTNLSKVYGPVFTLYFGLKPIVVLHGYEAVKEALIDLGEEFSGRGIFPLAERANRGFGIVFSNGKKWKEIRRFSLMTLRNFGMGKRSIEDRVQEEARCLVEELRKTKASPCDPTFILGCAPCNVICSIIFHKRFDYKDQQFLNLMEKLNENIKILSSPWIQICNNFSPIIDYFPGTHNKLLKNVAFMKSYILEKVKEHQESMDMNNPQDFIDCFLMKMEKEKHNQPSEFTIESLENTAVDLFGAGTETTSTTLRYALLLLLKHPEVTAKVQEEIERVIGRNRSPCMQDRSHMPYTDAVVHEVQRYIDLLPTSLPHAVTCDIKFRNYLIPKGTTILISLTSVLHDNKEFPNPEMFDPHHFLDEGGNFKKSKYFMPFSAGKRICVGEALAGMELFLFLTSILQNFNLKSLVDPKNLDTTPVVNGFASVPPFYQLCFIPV

Use these answered entries as a reference point.
Cc1cc(-c2ccccc2)nc(O)c1S(=O)(=O)c1ccc(Cl)cc1 = 3.55 µM (inconclusive)
Cc1ccccc1NC(=O)c1cccc2nc3ccccc3nc12 = 8.91 µM (inconclusive)
N[C@@H](C(=O)O)[C@H](CC(=O)O)c1ccc(Cl)cc1 = 39.8 µM (inconclusive)
O=C(Cc1ccc(Br)cc1)OCC(=O)c1ccc2c(c1)OCCO2 = 7.94 µM (inconclusive)
CCOC(=O)c1c(NC(C)=O)sc2c(OC)cccc12 = 5.01 µM (inconclusive)
Oc1[nH]c2ccccc2c1/C=N/c1nccs1 = 25.1 µM (inconclusive)
CN(C)c1ccc(-c2nc3n(n2)C(c2cccnc2)C2=C(O)CC(C)(C)CC2=N3)cc1 (centres undefined) = 28.2 µM (inconclusive)
NCC[Se][Se]CCN = 0.316 µM (inconclusive)

Fill in the blank: the reported AC50 of CC1Cc2ccccc2N1C(=O)Cn1cc([N+](=O)[O-])cn1 (centres undefined) is ____. 39.8 µM (inconclusive)

----------
Target: Fatty acid synthase (Homo sapiens)
Sequence (P49327 whole entry, the tested form may be a part): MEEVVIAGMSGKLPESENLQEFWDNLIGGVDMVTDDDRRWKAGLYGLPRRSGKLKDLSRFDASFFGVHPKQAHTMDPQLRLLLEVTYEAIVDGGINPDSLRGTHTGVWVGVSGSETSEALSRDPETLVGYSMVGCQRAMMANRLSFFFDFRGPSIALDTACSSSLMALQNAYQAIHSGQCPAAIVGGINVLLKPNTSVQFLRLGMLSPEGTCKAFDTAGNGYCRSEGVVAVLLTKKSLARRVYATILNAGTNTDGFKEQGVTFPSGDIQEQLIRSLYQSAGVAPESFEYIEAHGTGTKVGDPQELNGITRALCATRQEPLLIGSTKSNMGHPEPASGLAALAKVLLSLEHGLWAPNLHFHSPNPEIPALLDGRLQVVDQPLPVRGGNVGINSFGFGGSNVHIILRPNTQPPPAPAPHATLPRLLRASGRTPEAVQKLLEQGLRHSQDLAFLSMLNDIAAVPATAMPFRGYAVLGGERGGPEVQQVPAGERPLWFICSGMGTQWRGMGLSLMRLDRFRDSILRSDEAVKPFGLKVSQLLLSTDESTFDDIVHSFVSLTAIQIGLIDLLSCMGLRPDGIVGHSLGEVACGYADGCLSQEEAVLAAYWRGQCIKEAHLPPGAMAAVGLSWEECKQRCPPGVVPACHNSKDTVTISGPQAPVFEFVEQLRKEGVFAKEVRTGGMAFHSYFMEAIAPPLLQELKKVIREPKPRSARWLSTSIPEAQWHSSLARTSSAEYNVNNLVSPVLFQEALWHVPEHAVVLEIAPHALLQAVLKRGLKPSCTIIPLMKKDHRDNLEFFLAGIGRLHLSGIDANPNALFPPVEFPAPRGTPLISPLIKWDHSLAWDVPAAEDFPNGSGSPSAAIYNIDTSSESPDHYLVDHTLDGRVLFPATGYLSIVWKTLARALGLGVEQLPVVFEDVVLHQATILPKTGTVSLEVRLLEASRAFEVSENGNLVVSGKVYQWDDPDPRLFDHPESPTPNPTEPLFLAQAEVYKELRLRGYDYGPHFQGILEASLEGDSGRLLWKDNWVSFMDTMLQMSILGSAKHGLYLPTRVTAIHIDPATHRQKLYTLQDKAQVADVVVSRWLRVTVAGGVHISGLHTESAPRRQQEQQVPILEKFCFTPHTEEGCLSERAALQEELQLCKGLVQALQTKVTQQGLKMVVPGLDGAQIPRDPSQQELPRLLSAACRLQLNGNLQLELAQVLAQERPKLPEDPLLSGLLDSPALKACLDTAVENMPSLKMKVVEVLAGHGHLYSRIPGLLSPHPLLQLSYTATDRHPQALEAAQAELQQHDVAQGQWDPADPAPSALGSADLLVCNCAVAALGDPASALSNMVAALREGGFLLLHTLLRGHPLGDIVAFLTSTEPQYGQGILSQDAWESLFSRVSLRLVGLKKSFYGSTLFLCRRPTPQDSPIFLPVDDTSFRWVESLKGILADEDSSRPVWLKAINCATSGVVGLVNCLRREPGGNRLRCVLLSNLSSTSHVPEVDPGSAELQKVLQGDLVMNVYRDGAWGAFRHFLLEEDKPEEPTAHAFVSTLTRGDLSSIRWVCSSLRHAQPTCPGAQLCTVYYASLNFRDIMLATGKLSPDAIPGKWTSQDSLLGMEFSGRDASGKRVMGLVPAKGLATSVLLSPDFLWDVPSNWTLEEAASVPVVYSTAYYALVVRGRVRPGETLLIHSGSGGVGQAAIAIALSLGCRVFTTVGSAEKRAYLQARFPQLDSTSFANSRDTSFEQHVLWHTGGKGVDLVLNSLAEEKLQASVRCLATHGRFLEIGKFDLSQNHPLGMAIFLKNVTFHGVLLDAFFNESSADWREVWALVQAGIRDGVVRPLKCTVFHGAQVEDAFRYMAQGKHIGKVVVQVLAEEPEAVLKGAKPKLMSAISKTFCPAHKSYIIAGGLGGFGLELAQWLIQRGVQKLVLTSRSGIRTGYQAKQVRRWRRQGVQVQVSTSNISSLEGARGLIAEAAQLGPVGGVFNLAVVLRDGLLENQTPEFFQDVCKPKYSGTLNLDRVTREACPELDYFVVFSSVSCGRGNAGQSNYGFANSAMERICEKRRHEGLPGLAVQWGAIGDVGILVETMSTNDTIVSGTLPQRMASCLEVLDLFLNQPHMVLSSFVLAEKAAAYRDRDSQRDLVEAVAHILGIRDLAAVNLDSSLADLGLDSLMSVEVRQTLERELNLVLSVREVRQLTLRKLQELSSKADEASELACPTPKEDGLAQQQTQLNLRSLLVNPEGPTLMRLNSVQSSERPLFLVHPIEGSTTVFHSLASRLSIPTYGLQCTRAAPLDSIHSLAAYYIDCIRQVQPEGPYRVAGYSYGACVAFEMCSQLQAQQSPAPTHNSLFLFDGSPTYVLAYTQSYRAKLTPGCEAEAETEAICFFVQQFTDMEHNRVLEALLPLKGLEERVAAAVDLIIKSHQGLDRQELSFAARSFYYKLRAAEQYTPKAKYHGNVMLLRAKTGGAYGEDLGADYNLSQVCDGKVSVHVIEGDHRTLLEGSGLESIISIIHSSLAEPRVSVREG
Experiment: FAS thioesterase domain inhibitors, dose response, biochemical, endpoint fluorescence intensity, uHTS hits (AID 624327);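 further: fluorescence from hydrolysis of an O-methyl fluorescein acyl ester substrate by the enzyme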
Assay type: functional
Active and inactive are the calls of the source.
Collected IC50 values appear next to each entry.

Below are worked cases with known answers.
Cc1c(Br)c([N+](=O)[O-])nn1CC(=O)N1CCc2ccccc2C1 = 4.38 µM (active)
Cc1ccc([N+](=O)[O-])cc1NC(=O)C(Sc1ccccc1)c1ccccc1 (stereo not drawn) = 2.24 µM (active)
O[C@H]1C[C@H](c2ccccc2)N(CC2CCCCC2)C[C@@H]1n1cc(C2CC2)nn1 = 8.28 µM (active)
Cc1ccc(/C=C/c2ccc(=O)n(Cc3ccc(F)cc3)n2)cc1 = 11.8 µM (active)
O=C(COC(=O)c1cc([N+](=O)[O-])ccc1N1CCOCC1)c1ccccc1 = 9.63 µM (active)
CCC1CCCCN1S(=O)(=O)c1ccc(NC(=O)c2nc(S(C)(=O)=O)ncc2Cl)cc1 (stereo not drawn) = 5.75 µM (active)
O=C(O)COc1ccccc1C=NNc1ccc([N+](=O)[O-])cc1S(=O)(=O)Nc1ccc(Cl)cc1 = 10.8 µM (active)
COc1ccc(C(=O)CN(CCC(=O)O)S(=O)(=O)c2ccc([N+](=O)[O-])cc2)cc1 = 3.51 µM (active)

Field request: IC50 | item: Cc1onc(-c2ccccc2)c1C(=O)n1nnc2ccccc21 12.9 µM (active)

Any idea what its IC50 is? The molecule is CCCC(C)C1c2c(c(C)c(C)oc2=O)Oc2c(C)c(C)oc(=O)c21 (stereo not drawn) 9.33 µM (active)

Recorded IC50 of CC(OC(=O)c1cccc([N+](=O)[O-])c1)C(=O)N1CCc2ccccc21 (stereo not drawn) , please. 3.92 µM (active)

Consider the molecule O=[N+]([O-])c1ccc(CSc2ccc(S(=O)(=O)N3CCCC3)cn2)cc1 and give its measured IC50. 12.1 µM (active)

Given Cc1[nH]n(-c2ccccc2)c(=O)c1C(c1ccc([N+](=O)[O-])cc1)c1c(C)[nH]n(-c2ccccc2)c1=O , state its recorded IC50. 3.19 µM (active)
